Catalogue of max response values
test system: KB-3-1; experiment: Cytotoxic Profiling of Annotated Libraries Using Quantitative High-Throughput Screening (AID 1296008); settings: Five cell lines viability, CellTiter-Glo ATP luminescence, 48-72 h; stronger effect = lower value; also: % is scaled to controls: 0 for no effect and ±100 for the full control effect; nearly all actives have a fitted effect of over 60% in size
Results filed as inconclusive are left out.
Record the value in %, omitting the unit from your answer.

CC(C)(C)C1CCN(C(=O)n2ncc(C(O)(c3ccccc3)c3ccccc3)n2)CC1; -15.2
COc1ccc(OC)c(-c2ccc(NC(=O)c3ccncc3F)cc2)c1; -12.6
C[C@@H]1C[C@H](C)CN(CCC(=O)Nc2ccc(Br)cc2)C1; -13.7
O=C(NC[C@H](O)CN1CCc2ccccc2C1)c1ccnc(NC2CCC2)c1; -4.24
CC(C)(Cc1ccccc1)NCC(O)c1ccc(O)c(NS(C)(=O)=O)c1 (stereo not given); -4.4
C/C(=C\CO[C@@H]1O[C@H](CO[C@H]2OC[C@](O)(CO)[C@H]2O)[C@@H](O)[C@H](O)[C@H]1O)C(C)(C)O; 2.14
CCC(CC)Nc1nc(C)c(-c2ccc(OC(F)(F)F)cc2OC)nc1OC; 0.138
NS(=O)(=O)c1ccc(N2N=C(c3ccccc3)CC2c2ccccc2)cc1 (stereo not given); -12.2
CCCCc1cc2c(=O)c(C(=O)OC)c[nH]c2cc1OCc1ccccc1; -10.6

Okay, next one:
Looking up `CC(=O)Nc1cccc(-c2csc(Nc3cc(C)ccn3)n2)c1` , I see its max response listed as -18.5

---

assay: P-glycoprotein substrates identified in KB-8-5-11 adenocarcinoma cell line, qHTS therapeutic library screen (AID 1346987); details: KB-8-5-11 (P-gp overexpressing) viability, CellTiter-Glo, 72 h; series mostly up to 44.5 µM; also: nearly all actives have a fitted effect of over 65% in size
Records with an inconclusive call do not appear. Calls of active or inactive are those of the source. Calls come from the whole dose curve; as a rule, active = well fitted inhibition curve with a large enough effect; inconclusive = small, poorly fitted or top-dose-only effect; inactive = flat fitted curve, though single readings scatter.
Hi there, use one of these labels in your reply, thanks! active, inactive

# count of solved cases: 5
C[C@H](Oc1cc(-n2cnc3ccc(CN4CCN(C)CC4)cc32)sc1C(N)=O)c1ccccc1C(F)(F)F; active
CC(=O)O[C@@H]1CC[C@@]2(C)C(CC[C@]3(C)C2[C@H](O)C=C2[C@H]4[C@@H](C)[C@H](C)CC[C@]4(C)CC[C@]23C)[C@@]1(C)C(=O)O (some centres undefined); inactive
COC[C@H](c1ccc(C(F)(F)F)cc1)N1CCN(C2(C)CCN(C(=O)c3c(C)ncnc3C)CC2)C[C@H]1C; inactive
O=C(Nc1ncc([N+](=O)[O-])s1)c1ccccc1O; active
O=c1[nH]cnc2[nH]cc(CN3CCCCC3)c12; inactive

// outcome(item) with item = O=C(O)c1cccc(-c2ccc(-c3cn(C(=O)N4CCCCC4Cc4ccccc4)nn3)cc2)c1 (centres undefined)
inactive

Which result was noted for this molecule in the test: `COc1cccc(CN(C(=O)CC(C)(C)C)[C@H]2C[C@H](C(=O)N3CCNCC3)N(Cc3ccc4c(c3)OCO4)C2)c1`
inactive

Any idea what this test logged for `COc1ccccc1C(=O)Nc1cc2c(cc1N1CCCC1)n(C)c(=O)n2C` ?
active

Per the records of this test, what outcome belongs to `O=[N+]([O-])c1cn2c(n1)OC[C@@H](OCc1ccc(-c3ccc(OC(F)(F)F)cc3)nc1)C2` ?
inactive

---

assay: qHTS drug screen for cell cycle checkpoint inhibitors in PARPi-resistant BRCA-mutant ovarian cancer cell lines. (AID 1963452); conditions: PEO1/OlaR viability, CellTiter-Glo luminescence, 96 h; stronger effect = lower value
Quantity kind: Z-AUC
The reply should be a number, written without any unit.

// worked examples, Z-AUC included
C1=C/COCc2cc(ccc2OCCN2CCCC2)Nc2nccc(n2)-c2cccc(c2)COC/1; -1.05
COc1cc2ncnc(Nc3ccc(O)c(Br)c3)c2cc1OC; -0.393
Cc1ccc(NC(=O)c2ccc(CN3CCNCC3)cc2)cc1Nc1nccc(-c2cccnc2)n1; 0.805
CCC[C@H](N[C@H]1CCc2cc(F)cc(F)c2C1)C(=O)Nc1cn(C(C)(C)CNCC(C)(C)C)cn1; -0.27
c1cc(-c2cnn3cc(-c4ccc(N5CCNCC5)cc4)cnc23)c2cccnc2c1; -1.26

response.value for `CN(C)N(C)C(=O)[C@@]1(Cc2ccccc2)CCCN(C(=O)[C@@H](Cc2c[nH]c3ccccc23)NC(=O)C(C)(C)N)C1` (field: Z-AUC) = -0.303

Sure, the documented Z-AUC for `CC(=O)N1CCN(CCOc2ccc(C3CCN(C4=Nn5c(nnc5C(F)(F)F)CC4)CC3)cc2)CC1` is -0.519

Per the records, this molecule ( `COc1cc2c(cc1OCCCN1CCCC1)N=C(N)C21CCC1` ) has Z-AUC equal to -0.834

Record summary for `Cn1ncnc1[C@H]1c2n[nH]c(=O)c3cc(F)cc(c23)N[C@@H]1c1ccc(F)cc1` : reported Z-AUC = 0.447

The recorded Z-AUC for entry `Cc1cn(CCN2CCN(c3ccccc3-c3cc(C#N)cc(C(=O)NCCCN4CCCC4)c3)CC2)c2ccccc12` equals -0.259

src = PubChem BioAssay (NCATS)
